Target: Nuclear receptor coactivator 1 (Homo sapiens)
Test: SRC1 coactivator transcriptional activity inhibitors, confirmation, cell-based, luminescence, quadruplicate (AID 588820)
Settings: HEK293 GAL4-SRC1 luciferase reporter, at 3.6 µM, hits give high values
Quick rule for you: inhibition at 10% or higher means fulfilled, lower means not fulfilled.

[[record]]
compound = "COc1ccc(C2=Nn3c([n+](C)c4ccccc43)SC2)cc1"
discrete_label = "fulfilled"

[[record]]
compound = "Cc1cc(C)cc(NS(=O)(=O)c2ccc3[nH]c(=O)ccc3c2)c1"
discrete_label = "not fulfilled"


Please indicate if the recorded inhibition for `O=[N+]([O-])c1ccc(CSc2ccc(S(=O)(=O)N3CCOCC3)cn2)cc1` meets or exceeds 10%.
not fulfilled

Determine whether measured inhibition meets or exceeds 10% for COc1ccc(C(=O)c2c(C)c3ccccc3n2CC(O)CNC(C)C)cc1 (stereo unspecified)
not fulfilled

Hello, I need to know if `Cc1ccc(C(=O)CSc2cnc3ccccc3n2)cc1C` has measured inhibition not below 10%. Thanks!
not fulfilled

// inclusive: inhibition at least 10%? input: `CSc1nc2[nH]ncc2c(=O)[nH]1`
not fulfilled

inhibition >= 10% for `Cc1nc2c(o1)C(=O)c1ccccc1C2=Nc1ccccc1` ?
fulfilled

Answer whether inhibition of `Cc1csc(SCC(=O)c2cc(C)n(Cc3cccs3)c2C)n1` is greater than or equal to 10%.
not fulfilled

Test whether the compound CC1=C(C(=O)OCc2ccccc2)C(c2ccsc2)C(C#N)=C(N)O1 (stereo unspecified) records inhibition of 10% or higher.
not fulfilled

Item `COc1cccc(/C=N/Nc2ncnc3scc(-c4ccccc4)c23)c1O` with inhibition of 10% or above?
fulfilled

inhibition >= 10% for `O=C(N/N=C/c1cc(Cl)ccc1O)c1ccccc1Br` ?
fulfilled

====

Target: Nuclear receptor coactivator 3 (Homo sapiens)
Assay: SRC3 coactivator transcriptional activity inhibitors, confirmation, cell-based, luminescence, quadruplicate (AID 588792)
Details: HEK293 GAL4-SRC3 luciferase reporter, at 3.6 µM
Calls of active or inactive are those of the source.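 Rule for the calls: active = mean inhibition over 43.08%, the solvent-only control mean plus 3 SD; inactive = the rest.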
Thanks in advance; please answer with one of these: active, inactive

[[record]]
molecule = "CC1Cc2ccccc2N1c1ncnc(N)c1[N+](=O)[O-] (stereo unspecified)"
discrete_label = "active"

[[record]]
molecule = "N#C/C(=N\\Nc1cccc([N+](=O)[O-])c1)C(=O)c1ccc(Br)cc1"
discrete_label = "inactive"


Which result was noted for this molecule in the test: `CCN(CC)c1ccc(/C=C/c2cccc[n+]2C)c(OC)c1`
active

Per the assay record, what outcome was assigned to `O=C(Nc1ccc(OC(F)(F)F)cc1)Nc1cccc([N+](=O)[O-])c1` ?
inactive

Returns: the outcome recorded for `Cn1c(Sc2ccc(Cl)cc2)c(C=O)c2ccccc21` in this assay.
active

Entry `COc1ccc(-n2c(-c3ccc(Cl)cc3)c[n+]3c2CCc2ccccc2-3)cc1` : call = ?
inactive

What was the test verdict on `COc1cc(SC)ccc1C(=O)Nc1nc(C)cs1` ?
inactive

Please share the test call associated with `Cc1ccc(-c2cc3c(N=O)c4ccccc4c-3n[nH]2)cc1` .
active

Hi, do you know how `Cc1ccc(C)c(N2CCN(C(=O)C34CC5CC(C3)CC(n3nnc(C)n3)(C5)C4)CC2)c1` came out in this test?
inactive

Kindly provide the recorded test outcome for the following molecule: `CC(=O)c1ccc(-n2c(C)c(C(C)=O)c3cc(O)ccc32)cc1`
active

Which outcome was entered for the molecule `CCN(CC)c1ccc(/C=N/Nc2nc(C)cc(=O)[nH]2)c(O)c1` in this test?
active

// data source = PubChem BioAssay
